The measurements presented in this section are drawn from paper PMC5175178.

- Test system: ABCB1
- Measurement Protocol: Caco-2 monolayer bidirectional permeability assay
- Test Conditions: human, Caco-2
Parameter: efflux ratio at 120 min
Answer using only a numeral; do not append any unit.

Task: # return recorded efflux ratio at 120 min for entry COC(=O)c1ccccc1-c1c2ccc(=N)cc-2oc2cc(N)ccc12 [Rhodamine123]
Result: 2.5

---

- System: cryopreserved human hepatocytes
- Measurement Protocol: Metabolic stability in cryopreserved human hepatocytes
- Test Conditions: 1 µM
# Half-Life t1/2 (min) 2nd values compiled below
Give the value, in units of min, as a plain number.

Some entries whose results are on file:
- Molecule: "O=c1cc(C(F)(F)F)c2ccc(O)cc2o1 [HFC, 7-hydroxy-4-trifluoromethylcoumarin]"
  Reading Unit: "min"
  Half-Life t1/2 (min) 2nd: 39.3
- Molecule: "COCCN(CC1CCCN(Cc2ccccc2)C1)S(=O)(=O)c1ccc2ccccc2c1 (racemic)"
  Reading Unit: "min"
  Half-Life t1/2 (min) 2nd: 51.7
- Molecule: "C=CCN1CC[C@]23c4c5ccc(O)c4O[C@H]2C(=O)CC[C@@]3(O)[C@H]1C5"
  Reading Unit: "min"
  Half-Life t1/2 (min) 2nd: 52.0

As a next step, examine the molecule that follows.
Task: Report Half-Life t1/2 (min) 2nd for `CCN(CC)CCN1C(=O)CN=C(c2ccccc2F)c2cc(Cl)ccc21`
Result: 44.1

---

- Measurement Protocol: in vitro
- Test Conditions: both, human, cryopreserved human hepatocytes, pH 7.3
Parameter: hepatocyte CLint at 1 µM (µL/min/1e6 cells)
Supply the numeric figure in µL/min/1e6 cells, leaving out any unit text.

Task: Answer with the recorded hepatocyte CLint at 1 µM for the compound listed here: O=c1cc(C(F)(F)F)c2ccc(O)cc2o1 [HFC, 7-hydroxy-4-trifluoromethylcoumarin]
Result: 24.8

---

- System: ABCB1
- Measurement Protocol: Caco-2 monolayer bidirectional permeability assay
- Test Conditions: human, Caco-2, basolateral-to-apical apparent permeability coefficient, after inhibition with PSC833
Parameter: Papp B→A at 120 min (×10⁻⁶ cm/s)
Write the value in ×10⁻⁶ cm/s as a bare number.

Task: Note Papp B→A at 120 min for the compound shown: `COC(=O)c1ccccc1-c1c2ccc(=N)cc-2oc2cc(N)ccc12`
Result: 2.5

---

- Measurement Protocol: in vitro
- Test Conditions: human, plasma
Parameter: half-life at 1 µM

Task: Check the records and state half-life at 1 µM for COCCN(CC1CCCN(Cc2ccccc2)C1)S(=O)(=O)c1ccc2ccccc2c1 (racemic)
Result: > 2 h

---

- Measurement Protocol: Caco-2 monolayer bidirectional permeability assay
- Test Conditions: human, Caco-2, Papp(A–B), apical-to-basolateral, 100 µM donor
Parameter: Papp A→B at 120 min, 100 µM (×10⁻⁶ cm/s)
The response must be a number in ×10⁻⁶ cm/s with no trailing unit.

Task: Provide one value: measured Papp A→B at 120 min, 100 µM of COCCN(CC1CCCN(Cc2ccccc2)C1)S(=O)(=O)c1ccc2ccccc2c1 (racemic)
Result: 30

---

- System: ABCB1
- Measurement Protocol: Caco-2 monolayer bidirectional permeability assay
- Test Conditions: human, Caco-2, basolateral-to-apical apparent permeability coefficient, no inhibitor
Parameter: Papp B→A at 120 min (×10⁻⁶ cm/s)
Please give a number only; it is taken to be in ×10⁻⁶ cm/s.

Task: Let me know recorded Papp B→A at 120 min for `COC(=O)c1ccccc1-c1c2ccc(=N)cc-2oc2cc(N)ccc12` , thanks.
Result: 7.7

---

- Tgt: huBChE (Homo sapiens)
- Construct: made in house
- Sequence (P06276 29-602): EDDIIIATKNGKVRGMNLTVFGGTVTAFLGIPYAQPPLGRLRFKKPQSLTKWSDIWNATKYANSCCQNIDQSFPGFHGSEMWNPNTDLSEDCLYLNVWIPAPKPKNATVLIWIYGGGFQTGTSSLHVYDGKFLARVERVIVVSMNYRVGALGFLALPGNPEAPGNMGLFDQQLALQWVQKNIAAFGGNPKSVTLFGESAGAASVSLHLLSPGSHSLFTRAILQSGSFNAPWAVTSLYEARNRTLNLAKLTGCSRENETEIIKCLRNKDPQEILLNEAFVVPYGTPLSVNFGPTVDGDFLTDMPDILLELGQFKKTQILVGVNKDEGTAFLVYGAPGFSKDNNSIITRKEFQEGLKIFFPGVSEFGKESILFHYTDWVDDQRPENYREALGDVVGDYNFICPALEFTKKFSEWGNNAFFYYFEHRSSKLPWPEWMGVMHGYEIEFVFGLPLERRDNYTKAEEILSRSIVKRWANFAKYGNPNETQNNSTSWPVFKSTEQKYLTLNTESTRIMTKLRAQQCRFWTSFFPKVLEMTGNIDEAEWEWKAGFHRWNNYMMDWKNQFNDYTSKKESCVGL
- Type: biochemical
- Test Conditions: residual activity at 10 μM; Table 1
# maps each entry to its %RA at 10μM ± SEM huBChE

- Compound: "COCCN(CC1CCCN(C2Cc3ccccc3C2)C1)S(=O)(=O)c1cccc(N)c1 (racemic)"
  Tgt: "huBChE (Homo sapiens)"
  Measured Result: "2.34% ± 0.13%"
- Compound: "COCCN(CC1CCCN(C2Cc3ccccc3C2)C1)S(=O)(=O)c1ccc2ccccc2c1 (racemic)"
  Tgt: "huBChE (Homo sapiens)"
  Measured Result: "1.47% ± 1.54%"

Task: Report its %RA at 10μM ± SEM huBChE with huBChE (Homo sapiens) as the test system: COCCCN(CC1CCCN(Cc2ccccc2)C1)S(=O)(=O)c1ccc2ccccc2c1 (racemic)
Result: 0.71% ± 0.66%

Task: Supply %RA at 10μM ± SEM huBChE measured with huBChE (Homo sapiens) for `COCCCN(CC1CCN(Cc2ccccc2)CC1)S(=O)(=O)c1ccc2ccccc2c1` .
Result: 0.93% ± 0.27%

---

- Tgt: mAChE (Mus musculus, UniProt P21836)
- Construct: donated by Florian Nachon (IBS, Grenoble)
- Sequence (P21836 32-614): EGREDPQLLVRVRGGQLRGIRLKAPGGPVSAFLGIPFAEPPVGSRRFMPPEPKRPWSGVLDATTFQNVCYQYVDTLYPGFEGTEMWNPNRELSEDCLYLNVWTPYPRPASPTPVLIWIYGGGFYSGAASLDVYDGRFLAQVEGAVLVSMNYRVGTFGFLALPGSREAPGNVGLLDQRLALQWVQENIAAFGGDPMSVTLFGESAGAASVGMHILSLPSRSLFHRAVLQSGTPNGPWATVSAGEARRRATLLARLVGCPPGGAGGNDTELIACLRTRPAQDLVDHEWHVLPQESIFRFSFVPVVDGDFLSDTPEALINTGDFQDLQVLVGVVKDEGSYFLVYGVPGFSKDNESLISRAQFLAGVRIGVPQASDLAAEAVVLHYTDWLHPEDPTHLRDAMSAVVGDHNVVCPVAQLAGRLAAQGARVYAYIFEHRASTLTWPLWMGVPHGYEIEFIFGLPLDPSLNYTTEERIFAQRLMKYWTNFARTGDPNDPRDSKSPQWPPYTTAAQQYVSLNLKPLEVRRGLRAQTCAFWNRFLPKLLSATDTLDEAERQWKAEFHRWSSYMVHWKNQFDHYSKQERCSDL
- Measurement Protocol: In-vitro inhibitory activity against mAChE, method of Ellman
- Type: biochemical, murine
Parameter: pIC50
API: returns pIC50 as number; meaning -log10 of concentration in mol/L.

Task: Supply pIC50 value. Item: `O=S(=O)(NCC1CCN(Cc2ccccc2)CC1)c1ccc2ccccc2c1`
Result: 5.75

---

- Tgt: mAChE (Mus musculus)
- Construct: donated by Florian Nachon (IBS, Grenoble)
- Measurement Protocol: In-vitro inhibitory activity against mAChE, method of Ellman
- Assay type: biochemical, murine
- Test Conditions: residual activity at 10 μM; %RA > 75% was considered as no inhibition; Table 1
Parameter: %RA at 10 µM ±SEM mAChE

- Compound: "COCCCN(CC1CCCN(Cc2ccccc2)C1)S(=O)(=O)c1ccc2ccccc2c1 (racemic) [compound 5]"
  %RA at 10 µM ±SEM mAChE: "95% ± 5%"

Task: // Input: COCCN(CC1CCCN(C2Cc3ccccc3C2)C1)S(=O)(=O)c1cccc(N)c1 (racemic) [compound 4] . Output its %RA at 10 µM ±SEM mAChE only.
Result: 90% ± 0.003%

Task: Tell us which %RA at 10 µM ±SEM mAChE value is on record for COCCCN(CC1CCN(Cc2ccccc2)CC1)S(=O)(=O)c1ccc2ccccc2c1 [compound 6]
Result: 95% ± 4%

Task: State, in one line, measured %RA at 10 µM ±SEM mAChE of COCCN(CC1CCCN(C2Cc3ccccc3C2)C1)S(=O)(=O)c1ccc2ccccc2c1 (racemic) [compound 3]
Result: 72% ± 1%

Task: Answer with the recorded %RA at 10 µM ±SEM mAChE for the compound listed here: COCCN(CC1CCCN(Cc2ccccc2)C1)S(=O)(=O)c1ccc2ccccc2c1 (racemic) [compound 2]
Result: 97% ± 2%

---

- Test system: ABCB1
- Measurement Protocol: Caco-2 monolayer bidirectional permeability assay
- Test Conditions: human, Caco-2, apical-to-basolateral apparent permeability coefficient, after inhibition with PSC833
Parameter: Papp A→B at 120 min (×10⁻⁶ cm/s)
Numeric answer only, unit ×10⁻⁶ cm/s assumed.

Task: Annotate the compound COC(=O)c1ccccc1-c1c2ccc(=N)cc-2oc2cc(N)ccc12 [Rhodamine123] with its measured Papp A→B at 120 min.
Result: 1

---

- Tgt: mAChE (Mus musculus, UniProt P21836)
- Construct: donated by Florian Nachon (IBS, Grenoble)
- Sequence (P21836 32-614): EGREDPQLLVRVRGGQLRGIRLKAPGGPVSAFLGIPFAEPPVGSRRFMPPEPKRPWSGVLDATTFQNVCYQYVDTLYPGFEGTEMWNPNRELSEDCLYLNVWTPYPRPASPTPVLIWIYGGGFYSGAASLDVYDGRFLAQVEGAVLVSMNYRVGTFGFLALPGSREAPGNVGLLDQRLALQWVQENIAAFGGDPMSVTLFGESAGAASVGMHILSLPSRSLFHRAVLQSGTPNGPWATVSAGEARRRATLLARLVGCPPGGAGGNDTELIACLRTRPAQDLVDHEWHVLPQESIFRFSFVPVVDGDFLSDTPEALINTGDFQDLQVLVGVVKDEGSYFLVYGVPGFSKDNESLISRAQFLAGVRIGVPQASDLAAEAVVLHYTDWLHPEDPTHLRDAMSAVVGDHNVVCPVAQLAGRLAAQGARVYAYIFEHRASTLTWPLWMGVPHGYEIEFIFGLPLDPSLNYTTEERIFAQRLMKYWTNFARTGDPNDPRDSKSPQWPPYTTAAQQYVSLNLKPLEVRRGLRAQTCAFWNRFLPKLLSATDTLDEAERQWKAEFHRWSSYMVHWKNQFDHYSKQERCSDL
- Measurement Protocol: In-vitro inhibitory activity against mAChE, method of Ellman
- Type: biochemical, murine
- Test Conditions: residual activity at 10 µM; %RA >75% was considered no inhibition; Supplementary Table 1
Parameter: %RA at 10 µM ±SEM mAChE. Scope: all listed entries.

The following compounds have reported results that may help.
- Compound: "O=S(=O)(NCC1CCCN(Cc2ccccc2)C1)c1ccc2ccccc2c1 (racemic) [compound 7]"
  Parameter: "%RA at 10 µM ±SEM mAChE"
  Measured Result: "78% ±3%"
- Compound: "COCCN(CC1CCCN(C2Cc3ccccc3C2)C1)S(=O)(=O)c1ccccc1C(=O)OC (racemic) [compound 21]"
  Parameter: "%RA at 10 µM ±SEM mAChE"
  Measured Result: "94% ±0.001%"
- Compound: "N#Cc1ccc(CN2CCCC(CNS(=O)(=O)c3ccc4ccccc4c3)C2)cc1 (racemic) [compound 69]"
  Parameter: "%RA at 10 µM ±SEM mAChE"
  Measured Result: "93% ±5%"
- Compound: "COCCCN(CC1CCCN(Cc2ccccc2)C1)S(=O)(=O)c1ccc2ccccc2c1 (racemic) [compound 5]"
  Parameter: "%RA at 10 µM ±SEM mAChE"
  Measured Result: "95% ±5%"
- Compound: "O=S(=O)(NCC1CCCN(Cc2ccc(F)cc2)C1)c1ccc2ccccc2c1 (racemic) [compound 68]"
  Parameter: "%RA at 10 µM ±SEM mAChE"
  Measured Result: "75% ±4%"

Task: Name the recorded %RA at 10 µM ±SEM mAChE of the item COCCN(CC1CCCN(Cc2cccc(F)c2)C1)S(=O)(=O)c1ccc2ccccc2c1 (racemic) [compound 38] in your answer.
Result: 99% ±0.001%

Task: Identify the reported %RA at 10 µM ±SEM mAChE for the following entry. Cc1cccc(CN2CCCC(CNS(=O)(=O)c3ccc4ccccc4c3)C2)c1 (racemic) [compound 66]
Result: 57% ±4%

Task: In one line, give reported %RA at 10 µM ±SEM mAChE of the entry Cc1nc(CN2CCCC(CNS(=O)(=O)c3ccc4ccccc4c3)C2)cs1 (racemic) [compound 65] .
Result: 71% ±4%

Task: For CCN(CC1CCCN(Cc2ccccc2)C1)S(=O)(=O)c1ccc2ccccc2c1 (racemic) [compound 46] , write its %RA at 10 µM ±SEM mAChE.
Result: 93% ±2%

Task: In one line, give reported %RA at 10 µM ±SEM mAChE of the entry COCCN(CC1CCN(Cc2ccccc2)CC1)S(=O)(=O)c1ccc2ccccc2c1 [compound 75] .
Result: 98% ±1%

Task: Using known records, supply %RA at 10 µM ±SEM mAChE for COCCCN(CC1CCCN(Cc2ccccc2)C1)S(=O)(=O)c1ccc2ccc(OCC#N)cc2c1 (racemic) [compound 49]
Result: 93% ±3%

Task: # return recorded %RA at 10 µM ±SEM mAChE for input COCCN(CC1CCCN(C2Cc3ccccc3C2)C1)S(=O)(=O)c1cccc(N)c1 (racemic) [compound 4]
Result: 90% ±0.003%

Task: Supply reported %RA at 10 µM ±SEM mAChE belonging to this compound: COCCN(CC1CCCN(Cc2ccccc2)C1)S(=O)(=O)c1ccc2ccc(OC)cc2c1 (racemic) [compound 43]
Result: 95% ±7%

Task: Given the compound COCCN(CC1CCCN(Cc2ccc(F)cc2)C1)S(=O)(=O)c1ccc2ccccc2c1 (racemic) [compound 37] , write its reported %RA at 10 µM ±SEM mAChE.
Result: 89% ±3%

Task: Consider the compound CN(CC1CCCN(Cc2ccc(F)cc2)C1)S(=O)(=O)c1ccc2ccccc2c1 (racemic) [compound 72] . State its measured %RA at 10 µM ±SEM mAChE.
Result: 96% ±2%

Task: Answer with the recorded %RA at 10 µM ±SEM mAChE for the compound listed here: COCCN(CC1CCCN(C2Cc3ccccc3C2)C1)S(=O)(=O)c1cccc(NC(C)=O)c1 (racemic) [compound 24]
Result: 95% ±4%
